Task for the reader: assign each of the following compounds its reported IC50.
# MEASUREMENT_TARGET: Very long chain fatty acid elongase 1 (Homo sapiens)
# Sequence (Q9BW60 whole entry): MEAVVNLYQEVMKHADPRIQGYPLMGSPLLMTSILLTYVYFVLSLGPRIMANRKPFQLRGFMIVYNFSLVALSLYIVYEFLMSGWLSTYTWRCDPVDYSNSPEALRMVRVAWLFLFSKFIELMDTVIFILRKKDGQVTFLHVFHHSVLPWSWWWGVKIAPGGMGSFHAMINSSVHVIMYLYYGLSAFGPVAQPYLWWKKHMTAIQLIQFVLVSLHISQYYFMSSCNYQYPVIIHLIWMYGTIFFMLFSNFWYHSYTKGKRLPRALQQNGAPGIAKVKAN
# EXPERIMENTAL_PROTOCOL: Inhibition of ELOVL1 in human HEK2936E cells assessed as reduction of C26:0 LPC synthesis incubated for 48 hrs by cellular assay
# Format: cell-based
One number for each entry, in nM.

Worked examples, 3 compounds total:
{"SUBSTANCE_SMILES": "N#Cc1ccc(C2(C(=O)Nc3ccn(-c4cncc(F)c4)n3)CC2)cc1", "READOUT_VALUE": 110}
{"SUBSTANCE_SMILES": "O=C(Nc1ccn(-c2cncc(F)c2)n1)C1(c2cc(F)ccc2F)CC1", "READOUT_VALUE": 170}
{"SUBSTANCE_SMILES": "O=C(Nc1ccn(-c2ccncc2)n1)C1(c2ccccc2F)CC1", "READOUT_VALUE": 80}

Field: IC50. Fill in for each record below.
1. N#Cc1ccccc1C1(C(=O)Nc2ccn(-c3cncc(F)c3)n2)CC1
2. O=C(Cc1ccccc1F)Nc1cnn(-c2ccccc2)n1
3. O=C(Nc1ccn(-c2ncns2)n1)C1(c2ccccc2F)CC1

Marked response:
[2500, 900, 18]
